Measured inhibition values are reported for all entries that follow.
# TARGET DESC: ORAI1/STIM1 (Homo sapiens) (UniProt Q96D31+Q13586)
# Sequence (Q13586 23-685 partner limits assumed): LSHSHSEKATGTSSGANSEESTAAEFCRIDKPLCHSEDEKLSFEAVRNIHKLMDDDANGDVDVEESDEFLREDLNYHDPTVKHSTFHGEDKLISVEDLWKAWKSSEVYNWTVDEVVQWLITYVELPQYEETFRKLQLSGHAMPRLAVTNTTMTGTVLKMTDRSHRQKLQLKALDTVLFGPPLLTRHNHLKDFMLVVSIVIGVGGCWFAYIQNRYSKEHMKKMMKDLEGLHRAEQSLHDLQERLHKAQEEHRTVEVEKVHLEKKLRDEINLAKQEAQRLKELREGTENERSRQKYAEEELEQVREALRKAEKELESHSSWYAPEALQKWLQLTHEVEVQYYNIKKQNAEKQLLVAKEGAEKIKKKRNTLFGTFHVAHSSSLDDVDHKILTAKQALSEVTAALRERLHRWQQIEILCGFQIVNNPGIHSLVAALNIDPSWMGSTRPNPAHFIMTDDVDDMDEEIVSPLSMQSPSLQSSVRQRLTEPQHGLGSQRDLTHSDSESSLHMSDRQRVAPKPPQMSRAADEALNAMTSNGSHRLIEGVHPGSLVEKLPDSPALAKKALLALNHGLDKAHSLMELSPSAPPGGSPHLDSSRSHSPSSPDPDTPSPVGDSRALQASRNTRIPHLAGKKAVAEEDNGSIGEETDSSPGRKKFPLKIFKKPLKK
# Sequence (Q96D31 whole entry): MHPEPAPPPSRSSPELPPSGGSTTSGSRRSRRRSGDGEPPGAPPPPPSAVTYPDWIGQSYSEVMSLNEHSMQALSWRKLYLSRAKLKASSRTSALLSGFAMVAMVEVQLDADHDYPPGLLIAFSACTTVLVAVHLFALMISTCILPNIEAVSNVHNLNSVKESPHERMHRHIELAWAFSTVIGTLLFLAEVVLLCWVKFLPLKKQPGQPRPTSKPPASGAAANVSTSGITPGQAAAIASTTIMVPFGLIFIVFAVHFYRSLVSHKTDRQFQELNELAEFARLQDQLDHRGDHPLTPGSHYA
# TEST NAME: Inhibition of STIM1/Orai1 (unknown origin) expressed in HEK293 cells assessed as reduction in tBHQ-induced calcium response at 10 uM relative to control
# Assay type: cell-based
# CONDITION CONTEXT: dose 10.0 µM
ENDPOINT LABEL: inhibition

[
  {
    "STRUCTURE AS SMILES": "O=C(O)c1cccc(-n2cc(-c3ccc(-c4ccc5c(c4)OCO5)cc3)nn2)c1",
    "ENDPOINT LABEL": "inhibition",
    "MEASURED VALUE": "0%"
  },
  {
    "STRUCTURE AS SMILES": "COc1cccc(OC)c1-c1ccc(-n2cc(-c3cccc(C(=O)O)c3)nn2)cc1",
    "ENDPOINT LABEL": "inhibition",
    "MEASURED VALUE": "25.8%"
  },
  {
    "STRUCTURE AS SMILES": "COc1ccc(-c2ccc(-n3cc(-c4cccc(C(=O)O)c4)nn3)cc2)c(OC)c1",
    "ENDPOINT LABEL": "inhibition",
    "MEASURED VALUE": "56.4%"
  },
  {
    "STRUCTURE AS SMILES": "COc1ccc(OC)c(-c2ccc(-c3cn(-c4ccncc4)nn3)cc2)c1",
    "ENDPOINT LABEL": "inhibition",
    "MEASURED VALUE": "-1.7%"
  },
  {
    "STRUCTURE AS SMILES": "O=C(O)c1cccc(NC(=O)c2ccc(-c3ccc4c(c3)OCCO4)cc2)c1",
    "ENDPOINT LABEL": "inhibition",
    "MEASURED VALUE": "22.6%"
  },
  {
    "STRUCTURE AS SMILES": "COc1ccc(-c2ccc(-c3cn(-c4cccc(C(=O)O)c4)nn3)cc2)c(OC)c1",
    "ENDPOINT LABEL": "inhibition",
    "MEASURED VALUE": "53%"
  },
  {
    "STRUCTURE AS SMILES": "COc1ccc(OC)c(-c2ccc(-c3cn(-c4cccnc4)nn3)cc2)c1",
    "ENDPOINT LABEL": "inhibition",
    "MEASURED VALUE": "1.2%"
  },
  {
    "STRUCTURE AS SMILES": "O=C(O)c1cccc(C(=O)Nc2ccc(-c3ccc4c(c3)OCCO4)cc2)c1",
    "ENDPOINT LABEL": "inhibition",
    "MEASURED VALUE": "51.8%"
  },
  {
    "STRUCTURE AS SMILES": "COc1ccc(OC)c(-c2ccc(-n3cc(-c4ccncc4F)nn3)cc2)c1",
    "ENDPOINT LABEL": "inhibition",
    "MEASURED VALUE": "-4.9%"
  },
  {
    "STRUCTURE AS SMILES": "COC(=O)c1cc(-n2cc(-c3ccc(-c4cc(OC)ccc4OC)cc3)nn2)ccn1",
    "ENDPOINT LABEL": "inhibition",
    "MEASURED VALUE": "73.5%"
  },
  {
    "STRUCTURE AS SMILES": "COc1cc(OC)cc(-c2ccc(-c3cn(-c4cccc(C(=O)O)c4)nn3)cc2)c1",
    "ENDPOINT LABEL": "inhibition",
    "MEASURED VALUE": "75.4%"
  },
  {
    "STRUCTURE AS SMILES": "O=C(O)c1cccc(-c2cn(-c3ccc(-c4ccc5c(c4)OCCO5)cc3)nn2)c1",
    "ENDPOINT LABEL": "inhibition",
    "MEASURED VALUE": "77.5%"
  },
  {
    "STRUCTURE AS SMILES": "O=C(O)c1cccc(-c2cn(-c3ccc(-c4ccc5c(c4)OCO5)cc3)nn2)c1",
    "ENDPOINT LABEL": "inhibition",
    "MEASURED VALUE": "67.3%"
  },
  {
    "STRUCTURE AS SMILES": "COc1ccc(OC)c(-c2ccc(-n3cc(-c4cccc(C(=O)O)c4)nn3)cc2)c1",
    "ENDPOINT LABEL": "inhibition",
    "MEASURED VALUE": "76.2%"
  },
  {
    "STRUCTURE AS SMILES": "COc1ccc(OC)c(-c2ccc(-c3cn(-c4ccncc4F)nn3)cc2)c1",
    "ENDPOINT LABEL": "inhibition",
    "MEASURED VALUE": "26.2%"
  },
  {
    "STRUCTURE AS SMILES": "O=C(O)c1cccc(-c2cn(-c3ccc(-c4ccccc4)cc3)nn2)c1",
    "ENDPOINT LABEL": "inhibition",
    "MEASURED VALUE": "51%"
  },
  {
    "STRUCTURE AS SMILES": "COc1ccc(OC)c(-c2ccc(-c3cn(-c4cccc(C(=O)O)c4)nn3)cc2)c1",
    "ENDPOINT LABEL": "inhibition",
    "MEASURED VALUE": "87.8%"
  },
  {
    "STRUCTURE AS SMILES": "COc1ccc(-c2ccc(-c3cn(-c4cccc(C(=O)O)c4)nn3)cc2)cc1OC",
    "ENDPOINT LABEL": "inhibition",
    "MEASURED VALUE": "39.6%"
  },
  {
    "STRUCTURE AS SMILES": "COc1ccc(OC)c(-c2ccc(NC(=O)c3ccncc3F)cc2)c1",
    "ENDPOINT LABEL": "inhibition",
    "MEASURED VALUE": "90.8%"
  }
]
